assay: Solubility of solid state forms in solvents (gravimetric or solvent addition); type: physicochemical; conditions: organic solvent or mixture, thermodynamic from solid; acetone, RT; read-out: Solubility

COMPOUND	solubility
CCOc1ccccc1-c1ccc(N2CCN(C(=O)C3(C(F)(F)F)CCC3)C[C@H]2CC)c(C(=O)N[C@@H]2CN3CCC2CC3)n1.O=C(O)/C=C\C(=O)O [Pattern C Maleate]	> 200 mg/mL

====

experiment: Solubility of solid state forms in solvents (gravimetric or solvent addition); format: physicochemical; conditions: IPAc, 50 °C, organic solvent or mixture, thermodynamic from solid, IPAc, 50° C.; read-out: Solubility
Structures can show the parent of a compound that is named as a salt.
RESULT TYPE: solubility (mg/mL)

> print(dat)
                                   molecule  unit.descriptor  recorded.number
1  CCOc1ccccc1-c1ccc(N2CCN(C(=O)C3(C(F)(F)F)CCC3)C[C@H]2CC)c(C(=O)N[C@@H]2CN3CCC2CC3)n1 [Pattern D Maleate]            mg/mL               13

====

assay: Solubility of solid state forms in solvents (gravimetric or solvent addition); format: physicochemical; settings: IPA, organic solvent or mixture, thermodynamic from solid, IPA, RT; read-out: Solubility
Counter-ions that a name gives are not always drawn.
RESULT TYPE: solubility (mg/mL)

> print(dat)
                                   compound  result.type  unit.descriptor  recorded.number
1  CCOc1ccccc1-c1ccc(N2CCN(C(=O)C3(C(F)(F)F)CCC3)C[C@H]2CC)c(C(=O)N[C@@H]2CN3CCC2CC3)n1 [Pattern D Maleate]   solubility            mg/mL               68

====

assay: Solubility of solid state forms in solvents (gravimetric or solvent addition); assay type: physicochemical; conditions: IPA:water (1:1 vol.), aqueous with cosolvent or surfactant or cyclodextrin, thermodynamic from solid, IPA:water (1:1 vol.), RT; read-out: Solubility
RESULT TYPE: solubility

> print(dat)
                           molecular.string  result.type            result
1  CCOc1ccccc1-c1ccc(N2CCN(C(=O)C3(C(F)(F)F)CCC3)C[C@H]2CC)c(C(=O)N[C@@H]2CN3CCC2CC3)n1   solubility  167 to 250 mg/mL

====

experiment: Solubility of solid state forms in solvents (gravimetric or solvent addition); format: physicochemical; settings: organic solvent or mixture, thermodynamic from solid; DMSO, RT; read-out: Solubility
RESULT TYPE: solubility

COMPOUND	RESULT TYPE	RESULT
CCOc1ccccc1-c1ccc(N2CCN(C(=O)C3(C(F)(F)F)CCC3)C[C@H]2CC)c(C(=O)N[C@@H]2CN3CCC2CC3)n1.O=C(O)/C=C\C(=O)O [Pattern C Maleate]	solubility	> 200 mg/mL

====

assay: Solubility in simulated fluids and water; type: physicochemical; conditions: FeSSIF (fed-state simulated intestinal fluid), pH 4.83, thermodynamic from solid; FeSSIF, 37° C., 24 h
Counter-ions that a name gives are not always drawn.
RESULT TYPE: solubility at 24 h

COMPOUND	RESULT TYPE	RESULT
CCOc1ccccc1-c1ccc(N2CCN(C(=O)C3(C(F)(F)F)CCC3)C[C@H]2CC)c(C(=O)N[C@@H]2CN3CCC2CC3)n1 [Pattern D Maleate]	solubility at 24 h	> 2500 µg/mL
CCOc1ccccc1-c1ccc(N2CCN(C(=O)C3(C(F)(F)F)CCC3)C[C@H]2CC)c(C(=O)N[C@@H]2CN3CCC2CC3)n1.O=C(O)/C=C\C(=O)O [Pattern C Maleate]	solubility at 24 h	> 2500 µg/mL

====

assay: Solubility of solid state forms in solvents (gravimetric or solvent addition); type: physicochemical; conditions: organic solvent or mixture, thermodynamic from solid; EtOAc, 50° C.; read-out: Solubility
RESULT TYPE: solubility (mg/mL)

COMPOUND	RECORDED NUMBER
CCOc1ccccc1-c1ccc(N2CCN(C(=O)C3(C(F)(F)F)CCC3)C[C@H]2CC)c(C(=O)N[C@@H]2CN3CCC2CC3)n1.O=C(O)/C=C\C(=O)O [Pattern C Maleate]	34

====

assay: Solubility of solid state forms in solvents (gravimetric or solvent addition); format: physicochemical; conditions: organic solvent or mixture, thermodynamic from solid; cyclohexane, 50° C.; read-out: Solubility
RESULT TYPE: solubility (µg/mL)

MOLECULE	RESULT TYPE	RECORDED NUMBER
CCOc1ccccc1-c1ccc(N2CCN(C(=O)C3(C(F)(F)F)CCC3)C[C@H]2CC)c(C(=O)N[C@@H]2CN3CCC2CC3)n1.O=C(O)/C=C\C(=O)O [Pattern C Maleate]	solubility	3000

====

assay: Solubility of solid state forms in solvents (gravimetric or solvent addition); format: physicochemical; conditions: IPA:water (9:1 vol.), organic solvent or mixture, thermodynamic from solid, IPA:water (9:1 vol.), RT; read-out: Solubility
Counter-ions that a name gives are not always drawn.
RESULT TYPE: solubility

> print(dat)
                                   molecule       result
1  CCOc1ccccc1-c1ccc(N2CCN(C(=O)C3(C(F)(F)F)CCC3)C[C@H]2CC)c(C(=O)N[C@@H]2CN3CCC2CC3)n1 [Pattern D Maleate]  > 333 mg/mL

====

assay: Solubility of solid state forms in solvents (gravimetric or solvent addition); format: physicochemical; details: organic solvent or mixture, thermodynamic from solid; MtBE, 50° C.; read-out: Solubility

MOLECULE	UNIT DESCRIPTOR	solubility
CCOc1ccccc1-c1ccc(N2CCN(C(=O)C3(C(F)(F)F)CCC3)C[C@H]2CC)c(C(=O)N[C@@H]2CN3CCC2CC3)n1.O=C(O)/C=C\C(=O)O [Pattern C Maleate]	µg/mL	4000

====

assay: Solubility of solid state forms in solvents (gravimetric or solvent addition); format: physicochemical; conditions: MeOAc, 50 °C, organic solvent or mixture, thermodynamic from solid, MeOAc, 50° C.; read-out: Solubility
Structures can show the parent of a compound that is named as a salt.
RESULT TYPE: solubility

> print(dat)
                                   compound       result
1  CCOc1ccccc1-c1ccc(N2CCN(C(=O)C3(C(F)(F)F)CCC3)C[C@H]2CC)c(C(=O)N[C@@H]2CN3CCC2CC3)n1 [Pattern D Maleate]  > 250 mg/mL

====

assay: Solubility of solid state forms in solvents (gravimetric or solvent addition); assay type: physicochemical; details: IPA:MtBE (3:7 vol.), organic solvent or mixture, thermodynamic from solid, IPA:MtBE (3:7 vol.), RT; read-out: Solubility
Where a name gives a salt, the structure may show the parent alone.
RESULT TYPE: solubility

> print(dat)
                                   compound      result
1  CCOc1ccccc1-c1ccc(N2CCN(C(=O)C3(C(F)(F)F)CCC3)C[C@H]2CC)c(C(=O)N[C@@H]2CN3CCC2CC3)n1 [Pattern D Maleate]  7000 µg/mL

====

assay: Solubility of solid state forms in solvents (gravimetric or solvent addition); type: physicochemical; details: organic solvent or mixture, thermodynamic from solid; IPA:heptane (1:1 vol.), 50° C.; read-out: Solubility
RESULT TYPE: solubility

COMPOUND	RESULT
CCOc1ccccc1-c1ccc(N2CCN(C(=O)C3(C(F)(F)F)CCC3)C[C@H]2CC)c(C(=O)N[C@@H]2CN3CCC2CC3)n1.O=C(O)/C=C\C(=O)O [Pattern C Maleate]	16 to 19 mg/mL

====

experiment: Solubility of solid state forms in solvents (gravimetric or solvent addition); assay type: physicochemical; conditions: organic solvent or mixture, thermodynamic from solid; IPA, 50° C.; read-out: Solubility
RESULT TYPE: solubility

COMPOUND	RESULT
CCOc1ccccc1-c1ccc(N2CCN(C(=O)C3(C(F)(F)F)CCC3)C[C@H]2CC)c(C(=O)N[C@@H]2CN3CCC2CC3)n1.O=C(O)/C=C\C(=O)O [Pattern C Maleate]	> 500 mg/mL

====

test: Solubility of solid state forms in solvents (gravimetric or solvent addition); format: physicochemical; details: organic solvent or mixture, thermodynamic from solid; MEK, RT; read-out: Solubility

COMPOUND	solubility
CCOc1ccccc1-c1ccc(N2CCN(C(=O)C3(C(F)(F)F)CCC3)C[C@H]2CC)c(C(=O)N[C@@H]2CN3CCC2CC3)n1.O=C(O)/C=C\C(=O)O [Pattern C Maleate]	> 200 mg/mL

====

assay: Solubility of solid state forms in solvents (gravimetric or solvent addition); assay type: physicochemical; details: organic solvent or mixture, thermodynamic from solid; MeOAc, RT; read-out: Solubility
RESULT TYPE: solubility

COMPOUND	RESULT TYPE	RESULT
CCOc1ccccc1-c1ccc(N2CCN(C(=O)C3(C(F)(F)F)CCC3)C[C@H]2CC)c(C(=O)N[C@@H]2CN3CCC2CC3)n1.O=C(O)/C=C\C(=O)O [Pattern C Maleate]	solubility	> 200 mg/mL
